Documented protein stability index across a set of variants
B1: SLC25A39 (parent)
chain: LTSDLYAPMVAGALARLGTVTVIS

- Variants of: B1
- assay_notes: protein stability index of a GFP-peptide fusion (GPS, HEK-293T) (PSI 1-6); higher = more stable;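 also: lentivirally expressed fusions sorted by FACS into six bins by GFP to DsRed ratio, PSI derived from sequencing read proportions per bin multiplied by bin number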
- particulars: c terminus: a fixed tail appended
measure: protein stability index

INSERT INTO assay_data (mutation_string, reported_result) VALUES
  ('I23S', 1.95),
  ('V22D', 1.49),
  ('S24E', 2.61),
  ('Y6T', 1.82),
  ('A13P', 1.16),
  ('V10F', 2.85),
  ('A7D', 1.17),
  ('P8C', 2.52),
  ('D4C', 4.74),
  ('L17W', 4.43),
  ('A11K', 2.39),
  ('L14Y', 3.67),
  ('R16E', 1.76),
  ('T19Q', 1.8),
  ('L1N', 2.77),
  ('I23G', 2.18),
  ('A7C', 2.42),
  ('A7L', 3.74),
  ('P8N', 1.7),
  ('S24H', 3.6),
  ('L14V', 2.83),
  ('V10E', 1.21),
  ('L14H', 1.12),
  ('S24C', 3.08),
  ('L5H', 1.34),
  ('L14R', 1.72),
  ('L1H', 2.01),
  ('A15F', 2.6),
  ('T19V', 2.87),
  ('S3I', 2.51),
  ('M9A', 2.21),
  ('L5D', 1.89),
  ('V20K', 2.05),
  ('Y6E', 2),
  ('V20H', 3.15),
  ('L14T', 1.58),
  ('V20W', 1.77),
  ('A7R', 3.29),
  ('T2W', 1.61),
  ('V10Q', 1.96),
  ('L5T', 1.48),
  ('S24I', 1.56),
  ('L5P', 2.31),
  ('D4P', 2.89),
  ('D4W', 3.9),
  ('G18W', 3.57),
  ('V22L', 3.04),
  ('V22F', 2.47),
  ('L5M', 2.95),
  ('L1I', 1.96),
  ('S24P', 2.21),
  ('V20F', 2.09),
  ('M9H', 1.77),
  ('A13K', 3.56),
  ('L1T', 1.75),
  ('A15Q', 3.66),
  ('R16Q', 3.11),
  ('R16P', 1.98),
  ('T21M', 2.7),
  ('V22A', 2.58),
  ('A15N', 1.87),
  ('M9G', 1.6),
  ('L17P', 1.69),
  ('V22K', 1.74),
  ('G12H', 2.64),
  ('L17K', 1.75),
  ('L14W', 5.23),
  ('T21W', 3.97),
  ('L14F', 3.32),
  ('G18D', 2.53),
  ('T21N', 2.79),
  ('L1D', 1.76),
  ('T19D', 1.76),
  ('D4Y', 5.3),
  ('Y6W', 3.76),
  ('L17R', 1.1),
  ('A15T', 3.55),
  ('A13H', 2.47),
  ('V10D', 1.9),
  ('P8L', 2.02),
  ('R16F', 4.13),
  ('R16Y', 2.35),
  ('G18R', 2.66),
  ('G12L', 3.83);
